Values from patent US10093630B2

- target_system: PLA2G7 (Mus musculus)
- Construct: Proteomes (mouse brain membrane fraction or cell lysates); from tissue; host or cells: mouse brain membrane fraction (or cell lysates, not specified)
- Sequence (Q60963 22-440): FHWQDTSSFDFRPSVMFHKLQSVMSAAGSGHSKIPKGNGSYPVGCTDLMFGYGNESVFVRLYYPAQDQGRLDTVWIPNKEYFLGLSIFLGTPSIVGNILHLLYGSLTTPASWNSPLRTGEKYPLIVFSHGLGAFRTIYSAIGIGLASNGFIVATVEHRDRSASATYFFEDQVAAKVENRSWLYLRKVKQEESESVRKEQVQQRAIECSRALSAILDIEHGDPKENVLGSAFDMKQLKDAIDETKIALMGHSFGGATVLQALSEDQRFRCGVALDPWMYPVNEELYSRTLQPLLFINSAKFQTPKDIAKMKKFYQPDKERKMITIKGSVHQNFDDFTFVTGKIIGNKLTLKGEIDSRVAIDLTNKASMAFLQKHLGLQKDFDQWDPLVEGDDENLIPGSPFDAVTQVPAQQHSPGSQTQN
- assay_info: In vitro competitive activity-based protein profiling (gel-based, FP-Rh or HT-01 probe)
- Type: biochemical
- condition_description: 10 μM inhibitor; gel-based competitive ABPP; read-out: % Inhibition at 10 μM, D = PLA2G7
- Procedure: In Vitro Competitive Activity-Based Protein Profiling. Proteomes (mouse brain membrane fraction or cell lysates) (50 μL, 1.0 mg/mL total protein concentration) were preincubated with varying concentrations of inhibitors at 37° C. […] Following gel imaging, serine hydrolase activity was determined by measuring fluorescent intensity of gel bands corresponding to MAGL, ABHD6, FAAH, and PLA2G7 using ImageJ 1.43u software.
measured_parameter: inhibition at 10 µM

INSERT INTO assay_data (molecule, target_system, measured_parameter, result) VALUES
  ('CCN(Cc1cccc(N2CCOCC2)c1)C(=O)n1cc(Cl)cn1 [Example 266]', 'PLA2G7 (Mus musculus)', 'inhibition at 10 µM', '< 25%'),
  ('N#Cc1cnn(C(=O)N2CCN(Cc3ccc(C(=O)N4CCC4)cc3Cl)CC2)c1 [Example 283]', 'PLA2G7 (Mus musculus)', 'inhibition at 10 µM', '> 75%'),
  ('CCN(Cc1ccc(Cl)cc1)C(=O)n1cc(C#N)cn1 [Example 252]', 'PLA2G7 (Mus musculus)', 'inhibition at 10 µM', '25 to 75%'),
  ('N#Cc1cnn(C(=O)N2CCCCCC2)c1 [Example 292]', 'PLA2G7 (Mus musculus)', 'inhibition at 10 µM', '> 75%'),
  ('CCN(Cc1cccc(OC)c1)C(=O)n1cc(C#N)cn1 [Example 249]', 'PLA2G7 (Mus musculus)', 'inhibition at 10 µM', '25 to 75%');
